# Experimental system: designed protein gp41-5
# Protocol notes: competition fluorescence polarization
# Parameters: species or system HIV
# Assay conditions: read-out: Ki for binding to gp41-5; competition FP assay
Measured parameter: Ki

Field request: Ki | item: Ac-RTWEEWDRAIAEYARRIEELIRAAQEQQRKNEEALREL-NH2 (N-terminus and C-terminus assumed) [3α]
< 0.2 nM
